target: complexes formed by Nanchung and Water witch proteins (Wtrw + Nan) (Drosophila melanogaster, UniProt Q9VHY7+Q9VUD5); construct: adenoviral co-expression in CHO-K1 cells, fluo-4 calcium FLIPR; test: Calcium mobilization (fluo-4AM, FLIPR-TETRA) in CHO-K1 cells co-expressing Water witch and Nanchung; format: cell-based; details: FIG. 2B; hamster CHO-K1 cells, adenovirus; Wtrw (SEQ ID NO 63) C-terminal FLAG/AcGFP, Nan (SEQ ID NO 7) C-terminal HA/mCherry; fluo-4AM, 20 mM CaCl2, 0.2% DMSO, 10 min; read-out: Wtrw + Nan (Water witch:Nanchung complex) EC50 (calcium response)
pEC50: −log10 of the molar value.

>  <smiles.input>
C[C@]1(COC(=O)C2CC2)[C@@H]2C[C@H](O)[C@@]3(C)Oc4cc(-c5cccnc5)oc(=O)c4[C@H](O)[C@@H]3[C@@]2(C)CC[C@@H]1OC(=O)C1CC1

>  <pEC50>
7.41

$$$$

----------
Biological target: complexes formed by Nanchung and Water witch proteins (Wtrw + Nan) (Drosophila melanogaster, UniProt Q9VHY7+Q9VUD5)
Construct: adenoviral co-expression in CHO-K1 cells, fluo-4 calcium FLIPR
Sequence (Q9VUD5 1-833): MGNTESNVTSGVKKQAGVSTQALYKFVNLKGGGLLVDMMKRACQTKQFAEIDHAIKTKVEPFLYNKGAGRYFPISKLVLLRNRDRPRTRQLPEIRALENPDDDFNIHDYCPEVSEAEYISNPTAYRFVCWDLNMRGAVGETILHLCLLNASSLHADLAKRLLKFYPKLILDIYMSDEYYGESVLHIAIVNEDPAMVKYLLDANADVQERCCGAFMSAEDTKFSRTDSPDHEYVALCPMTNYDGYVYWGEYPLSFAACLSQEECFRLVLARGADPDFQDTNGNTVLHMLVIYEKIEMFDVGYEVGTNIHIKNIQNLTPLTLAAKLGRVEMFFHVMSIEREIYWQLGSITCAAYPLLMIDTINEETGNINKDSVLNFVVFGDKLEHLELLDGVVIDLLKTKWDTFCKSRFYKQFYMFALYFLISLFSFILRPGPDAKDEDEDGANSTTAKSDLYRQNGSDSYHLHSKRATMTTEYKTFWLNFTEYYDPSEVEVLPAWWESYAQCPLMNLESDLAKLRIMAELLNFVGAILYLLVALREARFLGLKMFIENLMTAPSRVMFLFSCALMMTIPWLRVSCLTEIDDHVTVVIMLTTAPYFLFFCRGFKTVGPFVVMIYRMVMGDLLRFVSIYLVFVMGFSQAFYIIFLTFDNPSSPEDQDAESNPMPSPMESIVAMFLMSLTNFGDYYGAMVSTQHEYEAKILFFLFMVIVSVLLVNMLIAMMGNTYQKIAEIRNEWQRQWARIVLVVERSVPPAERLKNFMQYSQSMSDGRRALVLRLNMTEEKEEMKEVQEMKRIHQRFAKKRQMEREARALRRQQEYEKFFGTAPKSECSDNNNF
Sequence (Q9VHY7 1-986): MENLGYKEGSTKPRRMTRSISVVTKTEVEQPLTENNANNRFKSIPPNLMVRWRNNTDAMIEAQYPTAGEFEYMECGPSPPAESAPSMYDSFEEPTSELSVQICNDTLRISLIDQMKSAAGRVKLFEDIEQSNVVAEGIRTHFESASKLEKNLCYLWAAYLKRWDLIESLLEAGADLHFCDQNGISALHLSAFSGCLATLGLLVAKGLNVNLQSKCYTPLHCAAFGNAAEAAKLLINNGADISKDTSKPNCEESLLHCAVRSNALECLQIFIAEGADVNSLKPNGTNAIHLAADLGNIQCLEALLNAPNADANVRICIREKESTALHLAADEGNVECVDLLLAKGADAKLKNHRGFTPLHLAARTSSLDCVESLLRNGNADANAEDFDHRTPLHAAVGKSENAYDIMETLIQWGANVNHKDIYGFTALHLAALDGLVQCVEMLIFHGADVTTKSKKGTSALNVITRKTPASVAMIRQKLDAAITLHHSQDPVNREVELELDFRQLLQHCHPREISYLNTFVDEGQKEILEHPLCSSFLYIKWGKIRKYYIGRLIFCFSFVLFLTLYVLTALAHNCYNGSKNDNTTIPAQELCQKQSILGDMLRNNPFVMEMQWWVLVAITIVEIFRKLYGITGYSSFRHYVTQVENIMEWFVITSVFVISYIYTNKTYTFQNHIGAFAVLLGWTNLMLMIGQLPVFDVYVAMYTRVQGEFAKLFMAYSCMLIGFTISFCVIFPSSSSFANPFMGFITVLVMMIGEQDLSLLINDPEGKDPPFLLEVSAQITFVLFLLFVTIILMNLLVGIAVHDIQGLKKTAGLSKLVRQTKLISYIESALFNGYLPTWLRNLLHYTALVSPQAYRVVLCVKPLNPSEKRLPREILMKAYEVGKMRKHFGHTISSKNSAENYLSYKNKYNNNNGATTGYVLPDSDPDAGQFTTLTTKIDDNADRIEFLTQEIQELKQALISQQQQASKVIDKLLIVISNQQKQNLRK
Experiment: Calcium mobilization (fluo-4AM, FLIPR-TETRA) in CHO-K1 cells co-expressing Water witch and Nanchung
Format: cell-based
pEC50: −log10 of the molar value.
parameter.measured: pEC50

>  <compound>
CC1=NNC(=O)N(/N=C/c2cccnc2)C1 [Pymetrozine, pymetrozine]

>  <parameter.measured>
pEC50

>  <measured.value>
7.02

$$$$
